tgt: Human Histamine H3 Receptor (Homo sapiens)
Construct: expressed in transfected cells; host or cells: HEK293T cells, stably transfected; membrane preparation
Sequence (Q9Y5N1 whole entry): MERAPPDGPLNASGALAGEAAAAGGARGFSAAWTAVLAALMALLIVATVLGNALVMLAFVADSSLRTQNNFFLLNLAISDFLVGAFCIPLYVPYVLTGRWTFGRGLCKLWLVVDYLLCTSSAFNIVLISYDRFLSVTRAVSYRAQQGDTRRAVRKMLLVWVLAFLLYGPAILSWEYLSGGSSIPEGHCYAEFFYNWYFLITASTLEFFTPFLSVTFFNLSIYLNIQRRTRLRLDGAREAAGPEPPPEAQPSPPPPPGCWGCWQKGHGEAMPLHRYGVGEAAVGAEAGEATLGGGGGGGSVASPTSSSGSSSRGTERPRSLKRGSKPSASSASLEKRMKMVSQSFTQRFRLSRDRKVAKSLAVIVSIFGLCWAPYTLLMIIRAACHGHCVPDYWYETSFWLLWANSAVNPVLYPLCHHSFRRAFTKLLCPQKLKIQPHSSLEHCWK
test summary: Methyl histamine binding in human histamine H3 receptor cell line
recorded conditions: membranes of stably transfected HEK293T cells; radioligand 1 nM; Ki from IC50 by Cheng-Prusoff
Protocol: Evaluation of Methyl Histamine Binding in Human Histamine H3 Receptor Cell Line The affinity of test compounds for the histamine 3 (H3) receptor is evaluated in the following manner. […] The resulting pellets are stored at −80° C. until ready for use. […] Protein concentration (ug/ul) is determined using the Micro-BCA Protein Determination. […] Non-specific binding is determined in the presence of 10 uM clobenpropit. […] The CPM per well is measured on a Packard Top Count NXT. Ki values are determined in nM. […]
pKi: −log10 of the molar value. Counter-ions that a name gives are not always drawn.
metric: pKi

CNC(=O)c1ccc(-c2ccc3c(c2)CN([C@@H]2CCN(C4CCC4)C2)C3=O)cc1 [Example 91, hydrochloride] ... 7.60 to 8.00
N#Cc1ccc(-c2ccc3c(c2)CN(C2CCN(CC4CCCC4)CC2)C3=O)cc1 ... 7.30 to 7.60
O=C(NC1CCC1)c1ccc(-c2ccc3c(c2)CCN([C@@H]2CCN(C4CCC4)C2)C3=O)c(F)c1 ... ≥ 8.00
COC(=O)c1ccc(Oc2ccc3c(c2)CCN(C2CCN(C4CCC4)CC2)C3=O)cc1 ... 7.00 to 7.30
O=C(NC1CCC1)c1ccc(COc2ccc3c(c2)CCN(C2CCN(C4CCC4)CC2)C3=O)cc1 ... ≥ 8.00
CNC(=O)c1ccc(Oc2ccc3c(c2)CCN(C2CCN(C4CCC4)CC2)C3=O)cc1 ... ≥ 8.00

Incoming: Lab note: need pKi for CN(C)C(=O)c1ccc(-c2ccc3c(c2)CCN([C@@H]2CCN(C4CCC4)C2)C3=O)cc1 on Human Histamine H3 Receptor (Homo sapiens), anyone have it?
Outgoing: ≥ 8.00

Incoming: Lab note: need pKi for CN(C)C(=O)c1ccc(COc2ccc3c(c2)CCN(C2CCN(C4CCC4)CC2)C3=O)cc1 on Human Histamine H3 Receptor (Homo sapiens), anyone have it?
Outgoing: ≥ 8.00

###

Structures can show the parent of a compound that is named as a salt.
Overview of reported melting point across a group of compounds:

# annotated cases, reported melting point shown
O=C(c1ccc(-c2ccc3c(c2)CN([C@@H]2CCN(C4CCC4)C2)C3=O)cc1)N1CCCC1 (as salt: hydrochloride) [Example 92] ... 220 to 221 °C
O=C(c1ccc(-c2ccc3c(c2)CCN([C@@H]2CCCN(C4CCC4)C2)C3=O)cc1)N1CCCC1 (as salt: hydrochloride) [Example 70] ... 260.5 to 262 °C

Kindly consider the entry below.
Incoming: Which melting point value is on record for O=C(c1ccc(-c2ccc3c(c2)CCN([C@@H]2CCCN(C4CCCC4)C2)C3=O)cc1)N1CCCC1 (as salt: hydrochloride) [Example 71] ?
Outgoing: > 250 °C

###

Where a name gives a salt, the structure may show the parent alone.
Overview of reported melting point across a group of compounds:

# annotated cases, reported melting point shown
CNC(=O)c1ccc(-c2ccc3c(c2)CCN([C@@H]2CCN(C4CCC4)C2)C3=O)cc1 (as salt: hydrochloride) [Example 44] ... 263 to 265 °C
O=C(NC1CCC1)c1ccc(COc2ccc3c(c2)CCN(C2CCN(C4CCC4)CC2)C3=O)cc1 (as salt: hydrochloride) [Example 19] ... 286 to 288 °C
N#Cc1ccc(-c2ccc3c(c2)CN(C2CCN(C4CCCC4)CC2)C3=O)cc1 (as salt: hydrochloride) [Example 29] ... 270 °C (dec.)
C[C@H]1CCCN1C(=O)c1ccc(-c2ccc3c(c2)CCN([C@@H]2CCN(C4CCC4)C2)C3=O)c(F)c1 (as salt: hydrochloride) [Example 73] ... 212 to 213 °C

Incoming: Which melting point value is on record for N#Cc1ccc(-c2ccc3c(c2)CN(C2CCN(CC4CCCC4)CC2)C3=O)cc1 (as salt: hydrochloride) [Example 27] ?
Outgoing: > 300 °C

Incoming: Which melting point value is on record for COC(=O)c1ccc(Oc2ccc3c(c2)CCN(C2CCN(C4CCC4)CC2)C3=O)cc1 (as salt: hydrochloride) [Example 1] ?
Outgoing: 269 to 270 °C

Incoming: Which melting point value is on record for O=C(c1ccc(COc2ccc3c(c2)CCN(C2CCN(C4CCC4)CC2)C3=O)cc1)N1CCCC1 (as salt: hydrochloride) [Example 20] ?
Outgoing: 284 to 286 °C

Incoming: Which melting point value is on record for N#Cc1ccc(-c2ccc3c(c2)CN(C2CCN(CC4CC4)CC2)C3=O)cc1 (as salt: hydrochloride) [Example 26] ?
Outgoing: 309 to 310 °C

Incoming: Which melting point value is on record for O=C(O)c1ccc(Oc2ccc3c(c2)CCN(C2CCN(C4CCC4)CC2)C3=O)cc1 [Example 2] ?
Outgoing: 255 to 256 °C

Incoming: Which melting point value is on record for O=C(c1ccc(-c2ccc3c(c2)CCN([C@@H]2CCN(C4CCC4)C2)C3=O)c(F)c1)N1CCCC1 (as salt: hydrochloride) [Example 79] ?
Outgoing: 211 to 212 °C

Incoming: Which melting point value is on record for CNC(=O)c1ccc(COc2ccc3c(c2)CCN(C2CCN(C4CCC4)CC2)C3=O)cc1 (as salt: hydrochloride) [Example 16] ?
Outgoing: 302 to 303 °C

Incoming: Which melting point value is on record for O=C(c1ccc(-c2ccc3c(c2)CCN([C@@H]2CCN(C4CCC4)C2)C3=O)cc1F)N1CCCC1 (as salt: hydrochloride) [Example 48] ?
Outgoing: 235 to 236 °C

Incoming: Which melting point value is on record for CNC(=O)c1ccc(-c2ccc3c(c2)CCN([C@@H]2CCN(C4CCCC4)C2)C3=O)cc1 (as salt: hydrochloride) [Example 41] ?
Outgoing: > 240 °C
